Examples of compounds with documented pKi follow.
biological target: Metabotropic glutamate receptor 5 (Rattus norvegicus, UniProt P31424)
Sequence (P31424 whole entry): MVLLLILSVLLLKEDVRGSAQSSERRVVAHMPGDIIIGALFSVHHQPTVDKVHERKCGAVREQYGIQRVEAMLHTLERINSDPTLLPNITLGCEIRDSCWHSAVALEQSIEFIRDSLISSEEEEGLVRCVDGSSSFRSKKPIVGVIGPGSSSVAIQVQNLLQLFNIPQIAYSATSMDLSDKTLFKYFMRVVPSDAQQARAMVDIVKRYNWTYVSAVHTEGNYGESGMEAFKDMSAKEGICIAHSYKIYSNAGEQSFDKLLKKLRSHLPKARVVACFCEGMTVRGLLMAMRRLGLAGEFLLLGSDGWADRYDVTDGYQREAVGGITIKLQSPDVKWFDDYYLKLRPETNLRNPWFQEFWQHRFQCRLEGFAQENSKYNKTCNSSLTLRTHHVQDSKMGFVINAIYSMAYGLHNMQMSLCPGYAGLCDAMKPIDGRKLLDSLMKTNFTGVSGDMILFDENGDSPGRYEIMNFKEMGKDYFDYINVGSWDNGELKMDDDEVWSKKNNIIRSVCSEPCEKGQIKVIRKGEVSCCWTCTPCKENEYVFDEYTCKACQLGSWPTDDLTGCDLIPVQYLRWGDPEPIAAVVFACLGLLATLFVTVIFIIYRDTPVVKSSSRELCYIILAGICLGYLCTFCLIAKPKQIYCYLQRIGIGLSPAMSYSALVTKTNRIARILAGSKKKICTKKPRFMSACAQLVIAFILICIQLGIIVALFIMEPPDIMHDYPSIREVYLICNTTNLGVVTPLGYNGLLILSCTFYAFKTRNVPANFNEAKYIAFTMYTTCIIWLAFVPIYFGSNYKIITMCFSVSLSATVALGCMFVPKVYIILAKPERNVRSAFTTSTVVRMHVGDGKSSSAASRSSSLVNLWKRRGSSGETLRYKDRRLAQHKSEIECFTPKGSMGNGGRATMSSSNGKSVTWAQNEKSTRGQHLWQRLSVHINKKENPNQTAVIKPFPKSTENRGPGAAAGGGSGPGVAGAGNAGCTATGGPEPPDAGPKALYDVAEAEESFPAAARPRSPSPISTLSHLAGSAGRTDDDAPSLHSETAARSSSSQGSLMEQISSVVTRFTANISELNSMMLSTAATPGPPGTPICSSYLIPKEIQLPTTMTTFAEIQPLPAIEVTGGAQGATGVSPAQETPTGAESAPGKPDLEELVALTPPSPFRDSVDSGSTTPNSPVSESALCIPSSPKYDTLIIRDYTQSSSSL
Give only the number. pKi is defined as minus log10 of concentration in molar units.

Line Notation | Measured Property | Meas Value
O=C(Nc1cc(-c2ccccc2)nn1-c1ccccc1)c1cccc(C(F)(F)F)c1 | pKi | 5.78
O=C(Nc1cc(-c2ccccc2)nn1-c1ccccc1F)c1ccccc1 | pKi | 5.57
O=C(Nc1cc(-c2ccccc2)nn1-c1ccccc1)c1ccc(Cl)c(Cl)c1 | pKi | 6.80

Please fill in: pKi reported for `N#Cc1ccc(C(=O)/N=c2\cc(-c3ccccc3)n(C(=O)c3ccc(C#N)cc3)n2-c2ccccc2)cc1` = 5.28

Please fill in: pKi reported for `O=C(Nc1cc(-c2ccccc2)nn1-c1ccccc1Br)c1ccc([N+](=O)[O-])cc1` = 6.92

Please fill in: pKi reported for `N#Cc1ccc(C(=O)Nc2cc(-c3ccccc3)nn2-c2ccccc2)cc1` = 5.81

Please fill in: pKi reported for `O=C(Nc1c(-c2ccccc2)nc2ccccn12)c1ccccc1` = 5.41

Please fill in: pKi reported for `N#Cc1cccc(C(=O)Nc2c(-c3ccccc3)cnn2-c2ccccc2)c1` = 5.92

----------
target: Metabotropic glutamate receptor 5 (Rattus norvegicus, UniProt P31424); test: Activity at mGluR5 assessed as potentiation of glutamate-induced calcium flux in rat astrocytes
Examples of compounds with documented pEC50 follow.
Give only the number. pEC50 is defined as minus log10 of concentration in molar units.

These solved cases illustrate the format of a correct answer.
Line Notation | Measured Property | Meas Value
O=C(Nc1cc(-c2ccccc2)nn1-c1ccccc1)c1cc([N+](=O)[O-])cc([N+](=O)[O-])c1 | pEC50 | 7.19
O=C(Nc1cc(-c2ccccc2)nn1-c1ccccc1Cl)c1ccccc1 | pEC50 | 7.21
Cc1ccc(C(=O)Nc2cc(-c3ccccc3)nn2-c2ccccc2)cn1 | pEC50 | 6.55
N#Cc1ccc(C(=O)Nc2cc(-c3ccccc3)nn2-c2ccccc2)cc1 | pEC50 | 7.12
c1ccc(-c2cn(-c3cc(-c4ccccc4)nn3-c3ccccc3)nn2)cc1 | pEC50 | 5.59

Metabotropic glutamate receptor 5 (Rattus norvegicus, UniProt P31424) pEC50 of `N#Cc1cccc(-n2nc(-c3ccccc3)cc2NC(=O)c2ccccc2)c1` is 6.93

Metabotropic glutamate receptor 5 (Rattus norvegicus, UniProt P31424) pEC50 of `O=C(c1ccc(F)cc1)N1CCC[C@H](c2nc(-c3ccc(F)cc3)no2)C1` is 6.77

Metabotropic glutamate receptor 5 (Rattus norvegicus, UniProt P31424) pEC50 of `O=C(Nc1cc(-c2ccccc2)nn1-c1ccccc1)c1cccc(C(F)(F)F)c1` is 6.64

----------
target: Metabotropic glutamate receptor 5 (Rattus norvegicus, UniProt P31424); assay: Activity at mGluR5 assessed as potentiation of glutamate-induced calcium flux in rat astrocytes
pEC50: −log10 of the molar value.
Binary call on pEC50: true (1) from 6 upward, false (0) beneath that.

// known answers, use as guide
Line Notation | Qualitative Label
O=C(/C=C/c1ccc([N+](=O)[O-])cc1)Nc1cc(-c2ccccc2)nn1-c1ccccc1 | true (1)
O=C(Nc1cc(-c2ccccc2)nn1-c1ccccc1)c1cccc([N+](=O)[O-])c1 | true (1)
O=C(Nc1cc(-c2ccccc2)nn1-c1ccccc1)c1ccncc1 | false (0)

Exercise: Determine whether measured pEC50 meets or exceeds 6 for `O=C(Nc1cc(-c2ccccc2)nn1-c1ccccc1Cl)c1ccc([N+](=O)[O-])cc1`
Solution: true (1)

Exercise: Determine whether measured pEC50 meets or exceeds 6 for `O=C(Nc1cc(-c2ccccc2)nn1-c1ccccc1)c1ccc(OC(F)(F)F)cc1`
Solution: true (1)

Exercise: Determine whether measured pEC50 meets or exceeds 6 for `COc1ccc(C(=O)Nc2cc(-c3ccccc3)nn2-c2ccccc2)cc1OC`
Solution: false (0)

Exercise: Determine whether measured pEC50 meets or exceeds 6 for `O=C(Nc1cc(-c2ccccc2)nn1-c1ccccc1)c1ccc([N+](=O)[O-])cc1`
Solution: true (1)

Exercise: Determine whether measured pEC50 meets or exceeds 6 for `COc1cccc(-n2nc(-c3ccccc3)cc2NC(=O)c2ccccc2)c1`
Solution: true (1)

----------
Data export: Ki values recorded with Metabotropic glutamate receptor 5 (Rattus norvegicus, UniProt P31424).
Record the value in µM, omitting the unit from your answer.

These solved cases illustrate the format of a correct answer.
Line Notation | Target Of Assay | Ki, µM
O=C(Nc1cc(-c2ccccc2)nn1-c1ccccc1)c1ccc(OC(F)(F)F)cc1 | Metabotropic glutamate receptor 5 (Rattus norvegicus, UniProt P31424) | 0.265
N#Cc1cccc(C(=O)Nc2c(-c3ccccc3)nc3ccccn23)c1 | Metabotropic glutamate receptor 5 (Rattus norvegicus, UniProt P31424) | 1.99
O=C(Nc1c(-c2ccccc2)cnn1-c1ccccc1)c1ccccc1 | Metabotropic glutamate receptor 5 (Rattus norvegicus, UniProt P31424) | 1.17
COc1cccc(-c2cc(NC(=O)c3ccccc3)n(-c3ccccc3)n2)c1 | Metabotropic glutamate receptor 5 (Rattus norvegicus, UniProt P31424) | 3.2

Now for a further molecule.
Please fill in: Ki reported for `Cc1ccc(C(=O)Nc2cc(-c3ccccc3)nn2-c2ccccc2)cn1` = 3.48

----------
biological target: Metabotropic glutamate receptor 5 (Rattus norvegicus); experiment: Activity at mGluR5 assessed as potentiation of glutamate-induced calcium flux in rat astrocytes
pEC50: −log10 of the molar value.
Binary call on pEC50: yes from 7 upward, no beneath that.

Line Notation | Target Of Assay | Qualitative Label
O=C(Nc1c(-c2ccccc2)cnn1-c1ccccc1)c1ccc([N+](=O)[O-])cc1 | Metabotropic glutamate receptor 5 (Rattus norvegicus) | no
O=C(CC1CCCC1)Nc1cc(-c2ccccc2)nn1-c1ccccc1 | Metabotropic glutamate receptor 5 (Rattus norvegicus) | no
COc1ccc(C(=O)Nc2cc(-c3ccccc3)nn2-c2ccccc2)cc1 | Metabotropic glutamate receptor 5 (Rattus norvegicus) | yes
N#Cc1cccc(C(=O)Nc2cc(-c3ccccc3)nn2-c2ccccc2Br)c1 | Metabotropic glutamate receptor 5 (Rattus norvegicus) | yes
O=C(Nc1cc(-c2ccccc2)nn1-c1ccccc1)c1ccc(Cl)c(Cl)c1 | Metabotropic glutamate receptor 5 (Rattus norvegicus) | yes

Exercise: Determine whether measured pEC50 meets or exceeds 7 for `O=C(Nc1cc(-c2ccccc2)nn1-c1ccccc1)C1=CCCCC1`
Solution: no

Exercise: Determine whether measured pEC50 meets or exceeds 7 for `O=C(Nc1cc(-c2ccccc2)nn1-c1ccccc1F)c1ccc([N+](=O)[O-])cc1`
Solution: yes

Exercise: Determine whether measured pEC50 meets or exceeds 7 for `O=C(Nc1cn(-c2ccccc2)nc1-c1ccccc1)c1ccc([N+](=O)[O-])cc1`
Solution: no

----------
biological target: Metabotropic glutamate receptor 5 (Rattus norvegicus); experiment: Activity at mGluR5 assessed as potentiation of glutamate-induced calcium flux in rat astrocytes; type: functional, cell-based; details: filed as antagonist
Measured Property: Activity

Line Notation | Meas Value
O=C(Nc1c(-c2ccccc2)cnn1-c1ccccc1)c1ccccc1 | Antagonist
N#Cc1cccc(C(=O)Nc2c(-c3ccccc3)cnn2-c2ccccc2)c1 | Antagonist
O=C(Nc1c(-c2ccccc2)nc2ccccn12)c1ccccc1 | Antagonist
N#Cc1cccc(C(=O)Nc2c(-c3ccccc3)nc3ccccn23)c1 | Antagonist

----------
Data export: pKi values recorded with UniProt P31424.
pKi: −log10 of the molar value.

These solved cases illustrate the format of a correct answer.
Line Notation | Meas Value
COc1ccc(C(=O)Nc2cc(-c3ccccc3)nn2-c2ccccc2)cc1OC | < 5.00
O=C(O)c1ccc(C(=O)Nc2cc(-c3ccccc3)nn2-c2ccccc2)cc1 | < 5.00

Now for a further molecule.
UniProt P31424 pKi of `O=C(Nc1cc(-c2ccccc2)nn1-c1ccccc1)c1ccccc1[N+](=O)[O-]` is < 5.00

----------
biological target: Metabotropic glutamate receptor 5 (Rattus norvegicus); assay: Activity at mGluR5 assessed as potentiation of glutamate-induced calcium flux in rat astrocytes
Measured Property: EC50 (nM)
Record the value in nM, omitting the unit from your answer.

These solved cases illustrate the format of a correct answer.
Line Notation | EC50 (nM)
COc1cc(OC)cc(C(=O)Nc2cc(-c3ccccc3)nn2-c2ccccc2)c1 | 2040
Cc1ccc(C(=O)Nc2cc(-c3ccccc3)nn2-c2ccccc2)cc1C | 20

Now for a further molecule.
Metabotropic glutamate receptor 5 (Rattus norvegicus) EC50 of `O=C(Nc1cc(-c2ccccc2Cl)nn1-c1ccccc1)c1ccccc1` is 2290

----------
target: UniProt P31424; assay: Activity at mGluR5 assessed as potentiation of glutamate-induced calcium flux in rat astrocytes; format: functional, cell-based
Measured Property: EC50

Line Notation | Target Of Assay | EC50
O=C(Nc1cc(-c2ccccc2)nn1-c1ccccc1)C1CCCCC1 | UniProt P31424 | > 10 µM
O=C(Nc1cc(-c2ccccc2)nn1-c1ccccc1Br)c1ccccc1 | UniProt P31424 | 0.2 µM
O=C(Nc1cc(-c2ccccc2)nn1-c1ccccc1)c1ccc(C(F)(F)F)cc1 | UniProt P31424 | 0.038 µM
O=C(Nc1cc(-c2ccccc2)nn1-c1ccccc1)C1CCCC1 | UniProt P31424 | 3.41 µM
COc1cccc(-c2cc(NC(=O)c3ccccc3)n(-c3ccccc3)n2)c1 | UniProt P31424 | 0.6 µM
O=C(Nc1cc(-c2ccccc2)nn1-c1ccccc1Br)c1ccc([N+](=O)[O-])cc1 | UniProt P31424 | 0.061 µM

Please fill in: EC50 reported for `O=C(Nc1cc(-c2ccccc2)nn1-c1cccc(Br)c1)c1ccccc1` = 0.4 µM
